PROCEDURE_DETAILS: PAMPA
SETTINGS: 10 μM, 4 h
MEASURED_PARAMETER: PAMPA

Past entries and their recorded results:
>>> experimental_result("O=C1NCCCC1C(=O)NCCc1c[nH]c2ccc(O)cc12 (stereo not drawn)")
"1.24 10^−6·cm/s"
>>> experimental_result("O=C(NCCO)c1cc(C(=O)NCCO)cc(C(=O)NCCO)c1")
"0.01 10^−6·cm/s"
>>> experimental_result("CC(C)CCNc1ncccc1C(=O)N1CCN(Cc2ccccc2)CC1")
"8.91 10^−6·cm/s"
>>> experimental_result("CN(C)c1ccc(-c2cc(=O)c3ccc(O)c(O)c3o2)cc1")
"15.5 10^−6·cm/s"
>>> experimental_result("NCCCC[C@H](NC(=O)[C@H](CO)NC(=O)CCC(=O)O)C(=O)NCCCCCCNC(=O)[C@H](CCCCN)NC(=O)[C@H](CO)NC(=O)CCC(=O)O [GSB-106, [OH-Suc-Ser-Lys-NH-(CH2)3-]2]")
"0.85 10^−6·cm/s"

Could you tell me which PAMPA is on file for "C=CC(C)(C)c1[nH]c2ccccc2c1C1=C(O)C(=O)C(c2c[nH]c3c(CC=C(C)C)cccc23)=C(O)C1=O" ?
6.93 10^−6·cm/s

---

PROCEDURE_DETAILS: in vivo
Type: in vivo, BALB/c mice
SETTINGS: male, BALB/c, mouse, in vivo, po, 50 mg/kg, plasma; 7,8-DHF p.o. 50 mg/kg; read-out: Cmax
MEASURED_PARAMETER: Cmax (ng/mL)
# unit: ng/mL | format: bare number

Could you tell me which Cmax is on file for O=c1cc(-c2ccccc2)oc2c(O)c(O)ccc12 [7,8-DHF, 7,8-dihydroxyflavone] ?
77.4

---

PROCEDURE_DETAILS: physchem
SETTINGS: 25 °C, pH 7.4, aqueous buffer, kinetic from dmso stock
MEASURED_PARAMETER: solubility kinetic at 4 h (µM)
# unit: µM | format: bare number

Could you tell me which solubility kinetic at 4 h is on file for O=c1cc(-c2cccc(O)c2)oc2c(O)c(O)ccc12 [7,8,3′-THF, 7,8,3′-trihydroxyflavone] ?
168

---

PROCEDURE_DETAILS: Chemical stability pH 7.4
Type: physicochemical
SETTINGS: pH = 7.4, 4 h
MEASURED_PARAMETER: Chemical Stability [% of Degradation]

>>> experimental_result("CN(C)c1ccc(-c2cc(=O)c3ccc(O)c(O)c3o2)cc1")
"1.31%"
>>> experimental_result("NCCCC[C@H](NC(=O)[C@H](CO)NC(=O)CCC(=O)O)C(=O)NCCCCCCNC(=O)[C@H](CCCCN)NC(=O)[C@H](CO)NC(=O)CCC(=O)O [GSB-106, [OH-Suc-Ser-Lys-NH-(CH2)3-]2]")
"Stable"
>>> experimental_result("O=c1cc(-c2cccc(O)c2)oc2c(O)c(O)ccc12 [7,8,3′-THF, 7,8,3′-trihydroxyflavone]")
"Stable"
>>> experimental_result("CC(=O)NCCc1c[nH]c2ccc(O)cc12")
"Stable"
>>> experimental_result("O=C(NCCO)c1cc(C(=O)NCCO)cc(C(=O)NCCO)c1")
"Stable"
>>> experimental_result("O=C1NCCCC1C(=O)NCCc1c[nH]c2ccc(O)cc12 (stereo not drawn)")
"Stable"
>>> experimental_result("OCCN(CCO)c1ccc(C(c2ccc(Cl)cc2)c2ccc(N(CCO)CCO)cc2)cc1")
"4.18%"
>>> experimental_result("CC(C)CCNc1ncccc1C(=O)N1CCN(Cc2ccccc2)CC1")
"0.65%"

Let's switch to this molecule now.
Could you tell me which Chemical Stability [% of Degradation] is on file for "COc1ccc(-c2cc3cccc(O)c3c(=O)o2)cc1" ?
Stable
